molecular target: Mannose-6-phosphate isomerase (Homo sapiens) (UniProt P34949); assay: inhibitors of human PMI, primary screen, biochemical, fluorescence intensity, coupled assay (AID 1209); details: purified PMI enzyme, at 20 µM;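 also: plate controls were DMSO vehicle for no effect and wells lacking substrate for full effect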
Sequence (P34949 whole entry, looked up): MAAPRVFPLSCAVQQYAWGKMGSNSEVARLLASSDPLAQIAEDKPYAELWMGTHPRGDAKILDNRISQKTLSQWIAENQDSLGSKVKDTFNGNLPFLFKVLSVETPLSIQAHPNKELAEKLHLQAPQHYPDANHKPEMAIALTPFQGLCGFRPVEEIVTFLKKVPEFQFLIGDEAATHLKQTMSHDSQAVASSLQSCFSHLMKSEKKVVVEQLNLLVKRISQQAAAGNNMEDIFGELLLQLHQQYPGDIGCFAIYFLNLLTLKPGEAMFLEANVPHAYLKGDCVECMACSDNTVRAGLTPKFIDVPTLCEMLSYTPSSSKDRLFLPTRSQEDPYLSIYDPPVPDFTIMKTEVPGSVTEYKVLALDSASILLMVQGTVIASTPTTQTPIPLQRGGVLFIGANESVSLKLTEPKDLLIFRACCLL
The campaign covered roughly 190,000 compounds. About 810 (0.43%) were called active. Rule as the data show it: active = inhibition above about 50%; inactive = the rest. The list comes from a sample in which actives are over-represented; it also holds close analogues and randomly drawn compounds.
Outcome codes: label 1 for active, label 0 for inactive

compound: O=C(NCc1cccnc1)c1ccc(COc2ccc3c(c2)CCC3)o1
group.label: label 0
--
compound: CC(C)C[C@H](NS(=O)(=O)c1ccc(Br)cc1)C(=O)O
group.label: label 0
--
compound: CCOC(=O)c1cnc2c(ccc3ccccc32)c1NCCO
group.label: label 1
--
compound: Cc1ccsc1/C=C1\CCc2ccccc2C1=O
group.label: label 0
--
compound: O=c1[nH]c2ccccc2n2c(-c3ccncc3)nnc12
group.label: label 0
--
compound: COc1ccc(C(=O)NCC(=O)OCC(=O)N2CC(C)CC(C)C2)cc1 (configuration not stated)
group.label: label 0
--
compound: Cc1nn(C2CCS(=O)(=O)C2)c(Cl)c1/C=C/C(=O)OCC(=O)Nc1ccccc1[N+](=O)[O-] (configuration not stated)
group.label: label 0
--
compound: S=C(Nc1ccccc1)N1CCN(C(=S)c2ccccc2)CC1
group.label: label 0
--
compound: CCOC(=O)c1cnc2ccccc2c1NCCO
group.label: label 0
--
compound: CC(C)=C1SC(N2CCN(c3ccc(Cl)cc3)CC2)=NC1=O
group.label: label 0
--
compound: O=C(CN1c2cccc3cccc(c23)S1(=O)=O)N1CCOCC1
group.label: label 0
--
compound: S=C1NC2(CCCC2)Nc2ccccc21
group.label: label 0

Sourced from PubChem BioAssay AID1209
